Measured values drawn from ChEMBL document CHEMBL3407483 for this set.

- Method Summary: Apparent permeability across apical to basolateral side in human Caco2 cells at 10 uM after 2 hrs by LC/MS/MS analysis
- Type: ADME, cell-based
- Condition Info: caco-2, 2 h
Recorded Metric: Papp (×10⁻⁶ cm/s)
Enter your answer as a number in ×10⁻⁶ cm/s; do not include the unit.

GET /values?readout=Papp&item= O=[N+]([O-])c1ncn(CC(O)(Cn2cncn2)c2ccc(-c3ccccc3)cc2)n1 (configuration not stated)
16.5

GET /values?readout=Papp&item= N#Cc1ccc(-c2ccc(NC(=O)Cn3cnc([N+](=O)[O-])n3)cc2)cc1
18.7

* * *

- Method Summary: Selectivity index, ratio of IC50 for rat L6 cells to IC50 for amastigote stage of Trypanosoma cruzi Tulahuen C4 infected in rat L6 cells
- Format: toxicity, cell-based
- Condition Info: read-out: Ratio IC50
# selectivity ratio listing for each entry below

> print(dat)
                                   compound  result
1  O=C(Cn1cnc([N+](=O)[O-])n1)Nc1nnc(-c2ccc(Cl)cc2)s1  > 16.5
2  O=C(Cn1cnc([N+](=O)[O-])n1)c1ccc(-c2ccccc2)cc1    1160
3  O=C(Cn1cnc([N+](=O)[O-])n1)Nc1nc(-c2ccc(Cl)cc2)cs1     973

GET /values?readout=selectivity ratio&item= Fc1ccc(C2(Cn3cncn3)Cn3ccnc3O2)c(F)c1 (stereo not drawn)
> 49.4

GET /values?readout=selectivity ratio&item= O=C(Cn1cncn1)c1ccc(-c2ccccc2)cc1
4.9

GET /values?readout=selectivity ratio&item= CC(O)(Cn1cnc([N+](=O)[O-])n1)c1ccc(-c2ccccc2)cc1 (stereo not drawn)
844

GET /values?readout=selectivity ratio&item= O=C(Cn1cnc([N+](=O)[O-])n1)Nc1nc(-c2ccc(F)c(F)c2)cs1
192

GET /values?readout=selectivity ratio&item= N#Cc1ccc(-c2ccc(NC(=O)Cn3cnc([N+](=O)[O-])n3)cc2)cc1
1190

* * *

# selectivity ratio listing for each entry below
- Method Summary: Selectivity index, ratio of IC50 for rat L6 cells to IC50 for amastigote stage of Trypanosoma cruzi Tulahuen C4 infected in rat L6 cells
- Type: toxicity, cell-based
- Condition Info: read-out: Ratio IC50

A selection of reference data follows.
> print(dat)
                                   molecule    recorded.metric  result
1  O=[N+]([O-])c1ncn(CC(O)(Cn2cncn2)c2ccc(F)cc2F)n1 (stereo not given)  selectivity ratio     220
2  Cc1ccc(S(=O)(=O)NC(Cc2ccccc2)Cn2cnc([N+](=O)[O-])n2)cc1 (stereo not given)  selectivity ratio     428
3  O=C(Cn1ccnc1[N+](=O)[O-])Nc1nc(-c2ccc(F)c(F)c2)cs1  selectivity ratio    15.6
4  CC(O)(Cn1cncn1)c1ccc(-c2ccccc2)cc1 (stereo not given)  selectivity ratio     162
5  O=C(Cn1cnc([N+](=O)[O-])n1)Nc1ccc(-c2ccc(Cl)cc2)cc1  selectivity ratio    2800

GET /values?readout=selectivity ratio&item= O=C(Cn1cnc([N+](=O)[O-])n1)c1ccc(F)cc1F
206

GET /values?readout=selectivity ratio&item= CC(O)(Cn1cnc([N+](=O)[O-])n1)c1ccc(-n2ccnc2)cc1 (stereo not given)
> 97

GET /values?readout=selectivity ratio&item= Cc1nc(-c2cccc(NC(=O)Cn3cnc([N+](=O)[O-])n3)c2)cs1
122

GET /values?readout=selectivity ratio&item= O=[N+]([O-])c1ncn(CC(O)(Cn2cncn2)c2ccc(-c3ccccc3)cc2)n1 (stereo not given)
3810

GET /values?readout=selectivity ratio&item= O=C(Cn1cnc([N+](=O)[O-])n1)Nc1ccc(N2CCCCC2)cc1
186
